Catalogue of IC50 values
Tested on: MOLM-13 cells
assay method text: Cell viability assay (CellTiter-Glo) in MOLM-13 cells, alone or with gilteritinib
Assay type: cell-based
cond: Homo sapiens, MOLM-13, 72 h, MOLM-13 cells, compound alone (without gilteritinib), three days, CellTiter-Glo; read-out: MOLM-13 IC50

molecule | IC50
O=C1CCC(N2C(=O)c3ccc(NCCC[C@H]4C[C@H](n5cc(-c6cccc(C7CCNCC7)n6)cn5)C4)cc3C2=O)C(=O)N1 (stereo partly drawn) [GS-238] | 10 to 100 nM
O=C1CCC(N2C(=O)c3ccc(NCCC[C@H]4C[C@@H](n5cc(-c6cnc7ccc(N8CCOCC8)cc7n6)c(C6CC6)n5)C4)cc3C2=O)C(=O)N1 (stereo partly drawn) [GS-227] | < 10 nM

Asked: API: value(readout=IC50, system=MOLM-13 cells) for record CN1CCC(c2cccc3nc(-c4cnn([C@H]5C[C@H](CCCNc6ccc7c(c6)C(=O)N(C6CCC(=O)NC6=O)C7=O)C5)c4)cnc23)CC1 (stereo partly drawn) [GS-426]
Given back: 10 to 100 nM

Asked: Query IC50 on MOLM-13 cells for O=C1CCC(N2C(=O)c3ccc(NCCC[C@H]4C[C@H](n5cc(-c6cnc7ccccc7n6)c(C(F)F)n5)C4)cc3C2=O)C(=O)N1 (stereo partly drawn) [GS-243]
Given back: 10 to 100 nM

Asked: Fill in the recorded IC50 for this molecule, with MOLM-13 cells as test system: O=C1CCC(N2C(=O)c3ccc(NCCCn4cc(-c5cnc6ccccc6n5)cn4)cc3C2=O)C(=O)N1 (stereo not drawn) [GS-355]
Given back: > 1000 nM

Asked: Find IC50 (MOLM-13 cells) for the entry Cc1nn(CCCCCCNc2ccc3c(c2)C(=O)N(C2CCC(=O)NC2=O)C3=O)c(C)c1-c1ncccn1 (stereo not drawn) [GS-150]
Given back: 100 to 1000 nM
